Kindly return 1.0 if reported O2 permeability is no lower than 20 Barrer; return 0.0 if it is lower.

Assess whether reported O2 permeability for *C(=C(*)c1ccc2c(c1)C(C)(C)CC2(C)C)c1ccccc1 (repeat unit) sits at 20 Barrer or higher. 1.0

Assess whether reported O2 permeability for *C(=C(*)c1ccc2c(ccc3ccccc32)c1)c1ccccc1 (repeat unit) sits at 20 Barrer or higher. 1.0

Assess whether reported O2 permeability for *Oc1ccc(S(=O)(=O)c2ccc(Oc3c(C)cc(Cc4cc(C)c(*)c(C)c4)cc3C)cc2)cc1 (repeat unit) sits at 20 Barrer or higher. 0.0

Assess whether reported O2 permeability for *OC1OC(COCC)C(*)C(OCC)C1OCC (repeat unit) sits at 20 Barrer or higher. 0.0

Assess whether reported O2 permeability for *CC(*)c1ccc(F)cc1 (repeat unit) sits at 20 Barrer or higher. 0.0

* * *

Property Label: CO2 permeability (Barrer)
Report only the number, with the unit Barrer understood.

For the compound *c1ccc(Oc2ccc(N3C(=O)c4cc5c(cc4C3=O)S(=O)(=O)c3cc4c(cc3S5(=O)=O)C(=O)N(*)C4=O)cc2)cc1 (repeat unit) , what CO2 permeability is on record? 9.6

For the compound *Oc1ccc(C(c2ccc(OC(=O)c3cc(C(*)=O)cc(C(C)(C)C)c3)cc2)(C(F)(F)F)C(F)(F)F)cc1 (repeat unit) , what CO2 permeability is on record? 56.9

For the compound *c1c(C)c(C)c(N2C(=O)c3ccc(Oc4cc(C)ccc4Oc4ccc5c(c4)C(=O)N(*)C5=O)cc3C2=O)c(C)c1C (repeat unit) , what CO2 permeability is on record? 20

For the compound *c1c(C)cc(-c2cc(C)c(N3C(=O)c4cc5c(cc4C3=O)C3(C)CCC5(C)c4cc5c(cc43)C(=O)N(*)C5=O)c3ccccc23)c2ccccc12 (repeat unit) , what CO2 permeability is on record? 4300

For the compound *C(C)=C(*)CCCCCC (repeat unit) , what CO2 permeability is on record? 230

For the compound *Oc1ccc(C(=O)c2ccc(Oc3c(C)cc(-c4cc(C)c(*)c(C)c4)cc3C)cc2)cc1 (repeat unit) , what CO2 permeability is on record? 19.4

For the compound *OCC1OC(COCC)C(*)C(OCC)C1OCC (repeat unit) , what CO2 permeability is on record? 67.7

For the compound *c1ccccc1Oc1ccc2ccccc2c1-c1c(Oc2ccccc2N2C(=O)c3ccc(C(c4ccc5c(c4)C(=O)N(*)C5=O)(C(F)(F)F)C(F)(F)F)cc3C2=O)ccc2ccccc12 (repeat unit) , what CO2 permeability is on record? 4.88

For the compound *C(=C(*)c1ccccc1)c1ccccc1 (repeat unit) , what CO2 permeability is on record? 6600

* * *

Please respond with reported CH4 permeability for every item in the list.
Report only the number, with the unit Barrer understood.

For the compound *C(C)=C(*)CCC(C)C (repeat unit) , what CH4 permeability is on record? 112

For the compound *c1c(C)cc(-c2cc(C)c(-n3c(=O)c4cc5oc6cc7c(cc6oc5cc4c3=O)C3(CC(C)(C)c4cc5oc6cc8c(=O)n(*)c(=O)c8cc6oc5cc43)CC7(C)C)c3ccccc23)c2ccccc12 (repeat unit) , what CH4 permeability is on record? 215

For the compound *c1cccc(Oc2ccc(C(c3ccc(Oc4cccc(-n5c(=O)c6cc7c(=O)n(*)c(=O)c7cc6c5=O)c4)cc3)(C(F)(F)F)C(F)(F)F)cc2)c1 (repeat unit) , what CH4 permeability is on record? 0.17

* * *

Kindly return Met if reported N2 permeability is no lower than 0.4 Barrer; return Not met if it is lower.

Assess whether reported N2 permeability for *Oc1ccc(S(=O)(=O)c2ccc(Oc3ccc(C(C)(C)c4ccc(*)c(C(OC)(C(F)(F)F)C(F)(F)F)c4)cc3C(OC)(C(F)(F)F)C(F)(F)F)cc2)cc1 (repeat unit) sits at 0.4 Barrer or higher. Not met

Assess whether reported N2 permeability for *c1ccc(-c2ccc(N3C(=O)c4ccc(C(c5ccc6c(c5)C(=O)N(*)C6=O)(C(F)(F)F)C(F)(F)F)cc4C3=O)c(N)c2)cc1N (repeat unit) sits at 0.4 Barrer or higher. Met

Assess whether reported N2 permeability for *CC(*)C#N (repeat unit) sits at 0.4 Barrer or higher. Not met

Assess whether reported N2 permeability for *Oc1ccc(C2(c3ccc(Oc4ccc(S(=O)(=O)c5ccc(*)cc5)cc4)c(C)c3)OC(=O)c3ccccc32)cc1C (repeat unit) sits at 0.4 Barrer or higher. Not met

Assess whether reported N2 permeability for *c1ccc(Oc2ccc3ccccc3c2-c2c(Oc3ccc(N4C(=O)c5ccc(C(c6ccc7c(c6)C(=O)N(*)C7=O)(C(F)(F)F)C(F)(F)F)cc5C4=O)cc3C)ccc3ccccc23)c(C)c1 (repeat unit) sits at 0.4 Barrer or higher. Met

Assess whether reported N2 permeability for *Oc1ccc(-c2ccc(Oc3c(F)c(F)c(COC(C4CCCC(C(OCc5c(F)c(F)c(*)c(F)c5F)(C(F)(F)F)C(F)(F)F)C4)(C(F)(F)F)C(F)(F)F)c(F)c3F)cc2)cc1 (repeat unit) sits at 0.4 Barrer or higher. Met

Assess whether reported N2 permeability for *c1ccccc1Oc1ccc2ccccc2c1-c1c(Oc2ccccc2N2C(=O)c3ccc(C(c4ccc5c(c4)C(=O)N(*)C5=O)(C(F)(F)F)C(F)(F)F)cc3C2=O)ccc2ccccc12 (repeat unit) sits at 0.4 Barrer or higher. Not met

Assess whether reported N2 permeability for *C(=C(*)c1ccc(-c2ccc(C(C)(C)C)cc2)cc1)c1ccccc1 (repeat unit) sits at 0.4 Barrer or higher. Met

Assess whether reported N2 permeability for *Nc1ccc(C(C)(C)c2ccc(NC(=O)c3ccc(Oc4cc(C(C)(C)C)c(Oc5ccc(C(*)=O)cc5)cc4C(C)(C)C)cc3)c(C)c2)cc1C (repeat unit) sits at 0.4 Barrer or higher. Met

Assess whether reported N2 permeability for *c1ccc(N2C(=O)c3ccc([Si](C)(C)c4ccc5c(c4)C(=O)N(*)C5=O)cc3C2=O)cc1 (repeat unit) sits at 0.4 Barrer or higher. Not met

Assess whether reported N2 permeability for *c1cccc(C(c2cccc(-c3nnc(*)n3-c3ccc(O)cc3)c2)(C(F)(F)F)C(F)(F)F)c1 (repeat unit) sits at 0.4 Barrer or higher. Met

Assess whether reported N2 permeability for *CC(*)C(=O)OCC(F)(F)C(F)(F)C(F)(F)C(F)(F)C(F)(F)C(F)(F)C(F)(F)F (repeat unit) sits at 0.4 Barrer or higher. Met

Assess whether reported N2 permeability for *c1ccc(Cc2ccc(N3C(=O)c4ccc(-c5ccc6c(c5)C(=O)N(*)C6=O)cc4C3=O)c(C)c2)cc1C (repeat unit) sits at 0.4 Barrer or higher. Not met

Assess whether reported N2 permeability for *Oc1ccc(C(C)(C)c2ccc(OC(=O)c3cccc(C(*)=O)c3)cc2)cc1 (repeat unit) sits at 0.4 Barrer or higher. Not met

Assess whether reported N2 permeability for *CC(CCl)O* (repeat unit) sits at 0.4 Barrer or higher. Met

Assess whether reported N2 permeability for *C(C)=C(*)CCCCCCC (repeat unit) sits at 0.4 Barrer or higher. Met

Assess whether reported N2 permeability for *c1cc(C)c(N2C(=O)c3ccc(C(c4ccc5c(c4)C(=O)N(*)C5=O)(C(F)(F)F)C(F)(F)F)cc3C2=O)c(C)c1 (repeat unit) sits at 0.4 Barrer or higher. Met

Assess whether reported N2 permeability for *c1c(C)c(C)c(N2C(=O)c3ccc(Oc4cc(C(C)(C)C)ccc4Oc4ccc5c(c4)C(=O)N(*)C5=O)cc3C2=O)c(C)c1C (repeat unit) sits at 0.4 Barrer or higher. Met

Assess whether reported N2 permeability for *OC(=O)Oc1c(Cl)cc(C(C)(C)c2cc(Cl)c(*)c(Cl)c2)cc1Cl (repeat unit) sits at 0.4 Barrer or higher. Not met

Assess whether reported N2 permeability for *Oc1c(C)cc(C(C)(C)c2cc(C)c(OC(=O)c3cc(C(*)=O)cc(C(C)(C)C)c3)c(Br)c2)cc1Br (repeat unit) sits at 0.4 Barrer or higher. Met

Assess whether reported N2 permeability for *c1c(C)c(C(=O)O)c(C)c(N2C(=O)c3ccc(C(c4ccc5c(c4)C(=O)N(*)C5=O)(C(F)(F)F)C(F)(F)F)cc3C2=O)c1C (repeat unit) sits at 0.4 Barrer or higher. Met

* * *

Please respond with reported CH4 permeability for every item in the list.
Report only the number, with the unit Barrer understood.

For the compound *CN1CN(*)c2cc3c(cc21)C1(C)CCC3(C)c2cc(*)c(*)cc21 (repeat unit) , what CH4 permeability is on record? 222

For the compound *Oc1ccc(C(C)(C)c2ccc(OC(=O)c3cccc(C(*)=O)c3)cc2)cc1 (repeat unit) , what CH4 permeability is on record? 0.269

For the compound *c1c(C)cc2c(c1C)C1c3ccccc3C2c2cc(C)c(N3C(=O)C4C5C=CC(C6C(=O)N(*)C(=O)C56)C4C3=O)c(C)c21 (repeat unit) , what CH4 permeability is on record? 69

For the compound *c1ccc(Sc2ccc(Sc3ccc(Sc4ccc(N5C(=O)c6ccc(C(c7ccc8c(c7)C(=O)N(*)C8=O)(C(F)(F)F)C(F)(F)F)cc6C5=O)cc4)cc3)cc2)cc1 (repeat unit) , what CH4 permeability is on record? 0.22

For the compound *C(=C(*)c1ccc2c(c1)C1(CC1)c1ccccc1-2)c1ccc([Si](C)(C)C)cc1 (repeat unit) , what CH4 permeability is on record? 1500

For the compound *C(=C(*)c1ccc(-c2ccc([Si](C)(C)C)cc2)cc1)c1ccccc1 (repeat unit) , what CH4 permeability is on record? 450

For the compound *C(=C(*)c1ccc2c(c1)C(C)(C)c1ccccc1-2)c1ccc(Br)cc1 (repeat unit) , what CH4 permeability is on record? 9300

For the compound *c1ccc(Oc2ccc(-c3ccc(-c4ccc(-c5ccc(Oc6ccc(N7C(=O)c8ccc(C(c9ccc%10c(c9)C(=O)N(*)C%10=O)(C(F)(F)F)C(F)(F)F)cc8C7=O)cc6)c(C(F)(F)F)c5)cc4)cc3)cc2C(F)(F)F)cc1 (repeat unit) , what CH4 permeability is on record? 1.51
